- System: ctXPB;ctp52;ctp8 (Chaetomium thermophilum;Chaetomium thermophilum;Chaetomium thermophilum)
- assay remarks: fluorescence polarization
- measurement context: ctp52/ctp8 2:1 to ctXPB; Kd in nM XPB; 2.5 mM MgCl2, no ATP stated; 20 mM HEPES pH 7.5, 10 mM KCl, 2.5 mM MgCl2, 1 mM TCEP, 6 nM DNA, room temperature
readout label: Kd
Number first, unit second: that is the form wanted.

# Kd of AGCTACCATGCCTGCACGAATTAAGCAATTCGTAATCATGGTCATAGC (double strand) [Cy3-dsDNA 48 bp] = 51 nM

====

- Tested on: ctXPB (Chaetomium thermophilum)
- assay remarks: fluorescence polarization
- measurement context: 20 mM HEPES pH 7.5, 10 mM KCl, 2.5 mM MgCl2, 1 mM TCEP, 6 nM DNA, room temperature
readout label: Kd (nM)
Use nM as the unit, but write only the number.

Consider AGCTACCATGCCTGCACGAATTAAGCAATTCGTAATCATGGTCATAGC (double strand) [Cy3-dsDNA 48 bp] . Its measured Kd is 77
